Values compiled from the supplement of paper PMC9112550.

# Tested on: Escherichia coli TOP10
# Assay: shrunken log2 fold change of peptide-encoding DNA abundance (4.5 h post-induction vs induction); higher = less antimicrobial activity (less host growth inhibition)
# Condition summary: time post-induction: 4.5 h; library: site-saturation at positions 5, 18, 19, 20
Here, each record is paired with measured shrunken log2 fold change data.
Number, no unit, nothing else.

Examples with answers:
INSERT INTO measurements (chain_sequence, measured) VALUES
  ('RRIRTRPPRLPRPRPRPMINPRP', -0.239),
  ('RRIRDRPPRLPRPRPRPHCAPRP', 0.143);

Query: Record request: shrunken log2 fold change value, item `RRIRERPPRLPRPRPRPIVPPRP`
Reply: -0.25

Query: Entry under review: `RRIRCRPPRLPRPRPRPCCCPRP` . Reported shrunken log2 fold change?
Reply: -0.224

Query: Which shrunken log2 fold change is reported for this sequence? `RRIRTRPPRLPRPRPRPQPEPRP`
Reply: 0.0514

Query: Need shrunken log2 fold change, item `RRIRIRPPRLPRPRPRPQPDPRP`
Reply: -0.483

Query: shrunken log2 fold change for `RRIRSRPPRLPRPRPRPPMMPRP` ?
Reply: 0.0697

Query: Value lookup for shrunken log2 fold change; key = `RRIRGRPPRLPRPRPRPDYRPRP`
Reply: 0.127

----------
# Tested on: Escherichia coli TOP10
# Assay: shrunken log2 fold change of peptide-encoding DNA abundance (4.5 h post-induction vs induction); higher = less antimicrobial activity (less host growth inhibition)
# Condition summary: time post-induction: 4.5 h; library: site-saturation at positions 5, 18, 19, 20
Items are presented alongside their recorded shrunken log2 fold change.
Answer with a number only.

INSERT INTO results (chain_sequence, value_type, measured) VALUES
  ('RRIRNRPPRLPRPRPRPADFPRP', 'shrunken log2 fold change', 0.0143),
  ('RRIRWRPPRLPRPRPRPIGEPRP', 'shrunken log2 fold change', 0.0833),
  ('RRIRQRPPRLPRPRPRPQTHPRP', 'shrunken log2 fold change', -0.293),
  ('RRIRIRPPRLPRPRPRPWVEPRP', 'shrunken log2 fold change', -0.211),
  ('RRIRHRPPRLPRPRPRPLHPPRP', 'shrunken log2 fold change', -0.148);

Query: Item: `RRIRLRPPRLPRPRPRPFFSPRP` Test system: Escherichia coli TOP10 Read-out: shrunken log2 fold change Value: ?
Reply: -0.0767

Query: Query for Escherichia coli TOP10: what shrunken log2 fold change does the record show for `RRIRLRPPRLPRPRPRPMKDPRP` ?
Reply: -0.111

Query: Entry `RRIRNRPPRLPRPRPRPKKMPRP` , system Escherichia coli TOP10: what shrunken log2 fold change was measured?
Reply: -0.233

----------
# Test system: Escherichia coli TOP10
# Assay: shrunken log2 fold change of peptide-encoding DNA abundance (4.5 h post-induction vs induction); higher = less antimicrobial activity (less host growth inhibition)
# Condition summary: time post-induction: 4.5 h; library: site-saturation at positions 5, 18, 19, 20
Value type: shrunken log2 fold change
Answer with a bare number; do not write a unit.

Study these solved cases before continuing.
INSERT INTO measurements (chain_sequence, measured) VALUES
  ('RRIRRRPPRLPRPRPRPCPEPRP', 0.0178),
  ('RRIRSRPPRLPRPRPRPCFSPRP', -0.378),
  ('RRIRQRPPRLPRPRPRPPTWPRP', -0.0557),
  ('RRIRYRPPRLPRPRPRPEFPPRP', 0.011),
  ('RRIRGRPPRLPRPRPRPLADPRP', 1.68),
  ('RRIRWRPPRLPRPRPRPQMVPRP', 0.0853),
  ('RRIRFRPPRLPRPRPRPAECPRP', -0.16),
  ('RRIRERPPRLPRPRPRPLKSPRP', -0.169),
  ('RRIRNRPPRLPRPRPRPRPVPRP', 0.303),
  ('RRIRYRPPRLPRPRPRPIIGPRP', -0.178);

Query: Entry `RRIRERPPRLPRPRPRPHFVPRP` : reported shrunken log2 fold change = ?
Reply: -0.0987

Query: Would you kindly share the measured shrunken log2 fold change for `RRIRHRPPRLPRPRPRPQGFPRP` ?
Reply: -0.00136

Query: Data request, read-out shrunken log2 fold change, for `RRIRYRPPRLPRPRPRPQQPPRP`
Reply: 0.0699

----------
# Tested on: Escherichia coli TOP10
# Assay: shrunken log2 fold change of peptide-encoding DNA abundance (4.5 h post-induction vs induction); higher = less antimicrobial activity (less host growth inhibition)
# Condition summary: time post-induction: 4.5 h; library: site-saturation at positions 5, 18, 19, 20
Value type: shrunken log2 fold change
Note: the reply should be a number with no unit written.

INSERT INTO measurements (chain_sequence, value_type, measured) VALUES
  ('RRIRYRPPRLPRPRPRPLHDPRP', 'shrunken log2 fold change', -0.74),
  ('RRIRKRPPRLPRPRPRPYPRPRP', 'shrunken log2 fold change', -0.00783);

Query: Item `RRIRCRPPRLPRPRPRPQPTPRP` has what recorded shrunken log2 fold change?
Reply: 0.319

Query: Could you tell me which shrunken log2 fold change is on file for `RRIRHRPPRLPRPRPRPKAGPRP` ?
Reply: -0.115

Query: Any idea what its shrunken log2 fold change is? The sequence is `RRIRFRPPRLPRPRPRPRFFPRP`
Reply: 0.0547

Query: What value of measured shrunken log2 fold change is listed for `RRIRTRPPRLPRPRPRPCLEPRP` ?
Reply: -0.279

Query: For the sequence shown here, `RRIRRRPPRLPRPRPRPHKHPRP` , give the reported shrunken log2 fold change.
Reply: -0.165

----------
We begin with a simple list: items and their reported shrunken log2 fold change.
# Tested on: Escherichia coli TOP10
# Assay: shrunken log2 fold change of peptide-encoding DNA abundance (4.5 h post-induction vs induction); higher = less antimicrobial activity (less host growth inhibition)
# Condition summary: time post-induction: 4.5 h; library: site-saturation at positions 5, 18, 19, 20

Example cases with answers are listed next.
INSERT INTO results (chain_sequence, value_type, measured) VALUES
  ('RRIRLRPPRLPRPRPRPFCYPRP', 'shrunken log2 fold change', -0.465),
  ('RRIRTRPPRLPRPRPRPGIIPRP', 'shrunken log2 fold change', 0.0136),
  ('RRIRGRPPRLPRPRPRPALWPRP', 'shrunken log2 fold change', 0.985),
  ('RRIRMRPPRLPRPRPRPTTPPRP', 'shrunken log2 fold change', 1.15),
  ('RRIRCRPPRLPRPRPRPSNFPRP', 'shrunken log2 fold change', -0.627),
  ('RRIRLRPPRLPRPRPRPDKTPRP', 'shrunken log2 fold change', -0.146),
  ('RRIRHRPPRLPRPRPRPCCKPRP', 'shrunken log2 fold change', 1.89),
  ('RRIRQRPPRLPRPRPRPMTMPRP', 'shrunken log2 fold change', -0.243),
  ('RRIRARPPRLPRPRPRPVFMPRP', 'shrunken log2 fold change', 0.0722),
  ('RRIRHRPPRLPRPRPRPSQDPRP', 'shrunken log2 fold change', -0.032);

Query: I'm curious: which shrunken log2 fold change was measured for `RRIRRRPPRLPRPRPRPSPTPRP` tested on Escherichia coli TOP10?
Reply: 0.598

Query: Reported shrunken log2 fold change for Escherichia coli TOP10, given `RRIRRRPPRLPRPRPRPCLWPRP` ?
Reply: 0.407

Query: // fetch Escherichia coli TOP10 shrunken log2 fold change for `RRIRFRPPRLPRPRPRPIPSPRP`
Reply: -0.0572

Query: Checklist item: shrunken log2 fold change tested on Escherichia coli TOP10, entry `RRIRDRPPRLPRPRPRPHTCPRP` , value?
Reply: -0.0522

Query: Give Escherichia coli TOP10 shrunken log2 fold change for `RRIRVRPPRLPRPRPRPCCLPRP`
Reply: -0.241

----------
# Test system: Escherichia coli TOP10
# Assay: shrunken log2 fold change of peptide-encoding DNA abundance (4.5 h post-induction vs induction); higher = less antimicrobial activity (less host growth inhibition)
# Condition summary: time post-induction: 4.5 h; library: site-saturation at positions 5, 18, 19, 20
Label label 1 when shrunken log2 fold change >= -0.06; otherwise label 0.

INSERT INTO assay_data (chain_sequence, group) VALUES
  ('RRIRTRPPRLPRPRPRPTAEPRP', 'label 1'),
  ('RRIRSRPPRLPRPRPRPKFLPRP', 'label 1');

Query: // inclusive: shrunken log2 fold change at least -0.06? input: `RRIRRRPPRLPRPRPRPFSEPRP`
Reply: label 1

----------
Measured shrunken log2 fold change of individual entries
# Tested on: Escherichia coli TOP10;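 note: peptides expressed intracellularly from a pBAD plasmid library in pooled LB shake-flask culture, induced with 0.3% L-arabinose, DNA abundance read by NGS, three biological replicates, DESeq2 with apeglm shrinkage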
# Assay: shrunken log2 fold change of peptide-encoding DNA abundance (4.5 h post-induction vs induction); higher = less antimicrobial activity (less host growth inhibition)
# Condition summary: time post-induction: 4.5 h; library: site-saturation at positions 5, 18, 19, 20
Field format: numeric only.

INSERT INTO results (chain_sequence, measured) VALUES
  ('RRIRKRPPRLPRPRPRPERPPRP', 0.407),
  ('RRIRHRPPRLPRPRPRPTEDPRP', -0.00383),
  ('RRIRRRPPRLPRPRPRPMPIPRP', 0.25),
  ('RRIRGRPPRLPRPRPRPAQIPRP', 0.592),
  ('RRIRSRPPRLPRPRPRPMACPRP', -0.342),
  ('RRIRQRPPRLPRPRPRPLLWPRP', 0.091),
  ('RRIRFRPPRLPRPRPRPTYPPRP', -0.497),
  ('RRIRPRPPRLPRPRPRPGLDPRP', 0.0198);

Query: What value of shrunken log2 fold change has been reported for the following sequence? `RRIRTRPPRLPRPRPRPTLRPRP`
Reply: -0.023

Query: Param item = `RRIRYRPPRLPRPRPRPQGGPRP` ; retrieve measured shrunken log2 fold change.
Reply: 0.0299

Query: What value of measured shrunken log2 fold change is listed for `RRIRGRPPRLPRPRPRPHKKPRP` ?
Reply: -0.108
